Field: MIC Staphylococcus aureus (GC 1131). Provide a value for each of the compounds that follow.
# Test system: Staphylococcus sp.
# protocol.details: in vitro antibacterial evaluation, MIC by broth dilution
# Type: cell-based
# setup.conditions: broth dilution, 18 hours at 35° C., inoculum 5×10^5 CFU/mL; strain GC 1131
API: value field is a number in µg/mL; no unit string.

Ask: Would you mind telling me what MIC Staphylococcus aureus (GC 1131) value was observed for CC(c1ccccc1)C1NC(=O)CNC(=O)C(CO)NC(=O)C(C(O)C2CNC(=N)N2C2OC(CO)C(O)C(O)C2O)NC(=O)C(C(O)C2CNC(=N)N2)NC(=O)C(Cc2ccc(OC3OC(CO)C(OC4OC5COC6(CCCCC6(C)C)OC5C(O)C4O)C(O)C3O)cc2)NC1=O (centres unmarked) ?
Reply: 2

Ask: Would you mind telling me what MIC Staphylococcus aureus (GC 1131) value was observed for CC(c1ccccc1)C1NC(=O)CNC(=O)C(CO)NC(=O)C(C(O)C2CNC(=N)N2C2OC(CO)C(O)C(O)C2O)NC(=O)C(C(O)C2CNC(=N)N2)NC(=O)C(Cc2ccc(OC3OC(CO)C(OC4OC5COC(c6cccc(Oc7cccc(C(F)(F)F)c7)c6)OC5C(O)C4O)C(O)C3O)cc2)NC1=O (centres unmarked) ?
Reply: 32

* * *

# protocol.details: clinical pathology (serum clinical chemistry) in mice
# Format: in vivo
# setup.conditions: CD-1 mice, 20 mg/kg intravenously daily for 9 days, sera day 10
Field: Clinical Chemistry (Day 10) % of Control, ALT. Provide a value for each of the compounds that follow.

Ask: Would you mind telling me what Clinical Chemistry (Day 10) % of Control, ALT value was observed for CC(c1ccccc1)C1NC(=O)CNC(=O)C(CO)NC(=O)C(C(O)C2CNC(=N)N2C2OC(CO)C(O)C(O)C2O)NC(=O)C(C(O)C2CNC(=N)N2)NC(=O)C(Cc2ccc(OC3OC(CO)C(OC4OC5COC6(OC5C(O)C4O)C4CC5CC(C4)CC6C5)C(O)C3O)cc2)NC1=O (stereo not shown) ?
Reply: +480%

Ask: Would you mind telling me what Clinical Chemistry (Day 10) % of Control, ALT value was observed for CC(C)CC(=O)OC1C(OC2C(CO)OC(Oc3ccc(CC4NC(=O)C(C(C)c5ccccc5)NC(=O)CNC(=O)C(CO)NC(=O)C(CC5CNC(=N)N5C5OC(CO)C(O)C(O)C5O)NC(=O)C(CC5CNC(=N)N5)NC4=O)cc3)C(O)C2O)OC(CO)C(O)C1O (stereo not shown) [Example 277b] ?
Reply: +164%

Ask: Would you mind telling me what Clinical Chemistry (Day 10) % of Control, ALT value was observed for CC(c1ccccc1)C1NC(=O)CNC(=O)C(CO)NC(=O)C(C(O)C2CNC(=N)N2C2OC(CO)C(O)C(O)C2O)NC(=O)C(C(O)C2CNC(=N)N2)NC(=O)C(Cc2ccc(OC3OC(CO)C(OC4OC5COC(Cc6ccccc6)OC5C(O)C4O)C(O)C3O)cc2)NC1=O (stereo not shown) ?
Reply: +672%

Ask: Would you mind telling me what Clinical Chemistry (Day 10) % of Control, ALT value was observed for CC(c1ccccc1)C1NC(=O)CNC(=O)C(CO)NC(=O)C(C(O)C2CN(Cc3ccccc3-c3ccccc3)C(=N)N2C2OC(CO)C(O)C(O)C2O)NC(=O)C(C(O)C2CNC(=N)N2)NC(=O)C(Cc2ccc(OC3OC(CO)C(OC4OC(CO)C(O)C(O)C4O)C(O)C3O)cc2)NC1=O (stereo not shown) ?
Reply: +196%

From: patent US6914045B2
